# SYSTEM: Atrial natriuretic peptide receptor 1 (Homo sapiens) (UniProt P16066)
# Sequence (P16066 whole entry, looked up): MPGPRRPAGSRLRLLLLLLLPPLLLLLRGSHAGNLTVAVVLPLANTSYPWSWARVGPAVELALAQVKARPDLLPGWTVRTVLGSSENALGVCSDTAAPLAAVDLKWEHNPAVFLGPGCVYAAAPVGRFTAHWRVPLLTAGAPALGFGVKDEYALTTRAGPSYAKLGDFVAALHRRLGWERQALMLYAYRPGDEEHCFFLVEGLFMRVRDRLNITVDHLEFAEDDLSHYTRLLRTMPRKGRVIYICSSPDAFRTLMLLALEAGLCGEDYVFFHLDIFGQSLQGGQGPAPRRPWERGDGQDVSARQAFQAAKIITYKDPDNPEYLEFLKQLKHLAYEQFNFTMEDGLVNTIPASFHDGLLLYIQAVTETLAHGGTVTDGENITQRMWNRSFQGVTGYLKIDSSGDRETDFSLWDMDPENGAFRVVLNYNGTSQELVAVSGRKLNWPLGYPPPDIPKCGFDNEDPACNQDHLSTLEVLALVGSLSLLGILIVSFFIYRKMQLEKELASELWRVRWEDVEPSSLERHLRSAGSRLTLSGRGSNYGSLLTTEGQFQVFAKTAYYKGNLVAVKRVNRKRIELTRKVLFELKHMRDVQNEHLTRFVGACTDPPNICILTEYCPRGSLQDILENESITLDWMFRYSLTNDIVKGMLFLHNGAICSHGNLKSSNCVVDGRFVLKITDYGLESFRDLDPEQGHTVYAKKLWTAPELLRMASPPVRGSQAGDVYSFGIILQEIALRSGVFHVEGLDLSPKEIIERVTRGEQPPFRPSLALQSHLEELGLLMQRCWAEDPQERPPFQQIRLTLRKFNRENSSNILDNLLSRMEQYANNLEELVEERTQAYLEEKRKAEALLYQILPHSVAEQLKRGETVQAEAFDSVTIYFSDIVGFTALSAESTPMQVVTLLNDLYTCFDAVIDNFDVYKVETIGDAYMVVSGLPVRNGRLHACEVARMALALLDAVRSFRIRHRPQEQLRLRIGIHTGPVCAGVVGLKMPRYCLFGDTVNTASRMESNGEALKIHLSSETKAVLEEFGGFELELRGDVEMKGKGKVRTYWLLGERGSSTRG
# METHOD_SUMMARY: GC-A stimulated cGMP production enhancers – HEK293 GC-A cells, cGMP TR-FRET, EC30 ANP, primary screen (AID 1671463)
# APPLIED_CONDITIONS: at 10 µM, active compounds read high, 0% at EC30 ANP, 100% saturating ANP
Out of some 370,000 compounds screened, about 520 (0.14%) were called active. This is one part of a sample in which actives are shown more often than they occur.
MEASURED_METRIC: activation (%)
Write the value in % as a bare number.

Problem: Look at this compound and give its reported activation. `CC(C)c1cc(C(=O)O)on1`
Solution: -0.6

Problem: Can you handle `COC(=O)c1c(NC(=O)COc2ccc(Cl)cc2Cl)sc2c1CC(C)(C)NC2(C)C` next?
Solution: 6

Problem: Repeat for the following compound: `COc1ccc(C#CCNCc2ccc(OC)cc2OC)cc1`
Solution: -0.15

Problem: What do you get for `CCc1c(-c2ccccc2OC)ncn1CCc1ccccc1OC` ?
Solution: -8.39

Problem: Now consider `COc1ccccc1-n1nnnc1S(=O)(=O)Cc1ccc(Cl)cc1` .
Solution: 0.71

----------
# SYSTEM: Atrial natriuretic peptide receptor 1 (Homo sapiens) (UniProt P16066)
# METHOD_SUMMARY: GC-A stimulated cGMP production enhancers – HEK293 GC-A cells, cGMP TR-FRET, EC30 ANP, primary screen (AID 1671463)
# APPLIED_CONDITIONS: at 10 µM, active compounds read high, 0% at EC30 ANP, 100% saturating ANP
Screen size: about 370,000 compounds; about 520 (0.14%) were called active. The list comes from a sample in which actives are over-represented; it also holds close analogues and randomly drawn compounds.
MEASURED_METRIC: activation (%)
Value expressed in %; do not type the unit.

>  <COMPOUND>
CCOC(=O)C(=O)N(Cc1ccccc1)c1ccccc1C(=O)Nc1cc(OC)ccc1OC

>  <MEASURED_METRIC>
activation

>  <NUMERIC_RESULT>
-11.8

$$$$
>  <COMPOUND>
CCCCN1C(=S)NC[C@@H]1C(C)CC (some centres not stated)

>  <MEASURED_METRIC>
activation

>  <NUMERIC_RESULT>
-0.8

$$$$
>  <COMPOUND>
COCCCNC(NC(=O)c1ccc(OC)cc1)C(Cl)(Cl)Cl (configuration not stated)

>  <MEASURED_METRIC>
activation

>  <NUMERIC_RESULT>
-6.96

$$$$
>  <COMPOUND>
CC1CCN(CCCNC(=O)CN2C(=O)CSc3ccc(S(=O)(=O)N4CCCCC4)cc32)CC1

>  <MEASURED_METRIC>
activation

>  <NUMERIC_RESULT>
3.44

$$$$
>  <COMPOUND>
CCOc1ccc(Oc2c(Cl)cnn(-c3ccc(C)cc3)c2=O)cc1

>  <MEASURED_METRIC>
activation

>  <NUMERIC_RESULT>
4.6

$$$$

Problem: Item under review: Cc1ccccc1CN(c1ccc(C(=O)NCC2CCCO2)cc1)S(C)(=O)=O (configuration not stated) . Reported activation?
Solution: 2.8

Problem: And then Cc1csc(NC(=O)C2CCCN2C(=O)OCC(C)C)n1 (configuration not stated) , what is it?
Solution: -0.58

Problem: Entry `COc1cc(F)c(C2=CC(=O)CC(C)(C)C2)cc1F` please
Solution: 0.01

Problem: Moving on to CC1CCC(N2CC(=O)N(Cc3ccc4c(c3)OCO4)C(c3ccc(F)cc3)C2=O)CC1 (configuration not stated)
Solution: -15.6

Problem: Same question, CC(NC(=O)CCCC1CCCCC1)c1ccc(S(N)(=O)=O)cc1 (configuration not stated) this time
Solution: -4.53

Problem: Now the compound `O=c1[nH]c2c(c(=O)n1-c1ccccc1)CCO2`
Solution: -0.17

Problem: // next record `COc1ccc(CCNC(=O)COc2ccc3c(c2)OCO3)cc1`
Solution: -3.12
